Quick list: FIC^c (FIC values with erythromycin) per entry.
System: E. coli (ATCC 10798)
testDescription: Sensitization to erythromycin or novobiocin (outer membrane permeabilization, FIC)
Type: cell-based, Escherichia coli
testConditions: Table 9; Escherichia coli (ATCC 10798)
Give the value as a plain number.

>  <compound>
C[C@H](CCCO)[C@H]1CC[C@H]2[C@@H]3[C@H](OCCCN)C[C@@H]4C[C@H](OCCCN)CC[C@]4(C)[C@H]3C[C@H](OCCCN)[C@]12C

>  <FIC^c (FIC values with erythromycin)>
0.070

$$$$
>  <compound>
CCCCCOCCC[C@@H](C)[C@H]1CC[C@H]2[C@@H]3[C@H](OCCCN)C[C@@H]4C[C@H](OCCCN)CC[C@]4(C)[C@H]3C[C@H](OCCCN)[C@]12C

>  <FIC^c (FIC values with erythromycin)>
0.28

$$$$
>  <compound>
COCCC[C@@H](C)[C@H]1CC[C@H]2[C@@H]3[C@H](OCCCN)C[C@@H]4C[C@H](OCCCN)CC[C@]4(C)[C@H]3C[C@H](OCCCN)[C@]12C

>  <FIC^c (FIC values with erythromycin)>
0.048

$$$$
>  <compound>
CCCCCCCCOCCC[C@@H](C)[C@H]1CC[C@H]2[C@@H]3[C@H](OCCCN)C[C@@H]4C[C@H](OCCCN)CC[C@]4(C)[C@H]3C[C@H](OCCCN)[C@]12C

>  <FIC^c (FIC values with erythromycin)>
1.0

$$$$
>  <compound>
CC(O)[C@H]1CC[C@H]2[C@@H]3[C@H](OCCCN)C[C@@H]4C[C@H](OCCCN)CC[C@]4(C)[C@H]3C[C@H](OCCCN)[C@]12C (stereo partly drawn)

>  <FIC^c (FIC values with erythromycin)>
0.16

$$$$
>  <compound>
CCCOCCC[C@@H](C)[C@H]1CC[C@H]2[C@@H]3[C@H](OCCCN)C[C@@H]4C[C@H](OCCCN)CC[C@]4(C)[C@H]3C[C@H](OCCCN)[C@]12C

>  <FIC^c (FIC values with erythromycin)>
0.048

$$$$
>  <compound>
C[C@H](CCO)[C@H]1CC[C@H]2[C@@H]3[C@H](OCCCN)C[C@@H]4C[C@H](OCCCN)CC[C@]4(C)[C@H]3C[C@H](OCCCN)[C@]12C

>  <FIC^c (FIC values with erythromycin)>
0.071

$$$$
>  <compound>
C[C@]12CC[C@@H](OCCCN)C[C@H]1C[C@@H](OCCCN)[C@@H]1[C@@H]2C[C@H](OCCCN)[C@]2(C)[C@@H](O)CC[C@@H]12

>  <FIC^c (FIC values with erythromycin)>
0.23

$$$$

Shift focus to the following entry.
For this compound ( C[C@H](CO)[C@H]1CC[C@H]2[C@@H]3[C@H](OCCCN)C[C@@H]4C[C@H](OCCCN)CC[C@]4(C)[C@H]3C[C@H](OCCCN)[C@]12C ), measured FIC^c (FIC values with erythromycin) is 0.071

* * *

Tested on: Candida albicans ATCC 90028
testDescription: MIC and MBC measurement
Format: cell-based
testConditions: ATCC90028, Table 10
Experimental: General: Microorganisms. Reference strains were purchased from the American Type Culture Collection (Rockville, MD) or Bactrol disks from Difeo Laboratories (Detroit, MI). […] Aliquots of 1 mL of the suspension were added to test tubes containing 1 mL TSB and incrementally varied concentrations of cholic acid derivatives and/or erythromycin or novobiocin. […] Colonies that grew on the subculture after overnight incubation were counted and the number of CFU/mL in the samples were calculated. […]
# reported MBC; entries follow
The answer is to be given in µg/mL; state only the numeric part.

>  <compound>
CCCOCCC[C@@H](C)[C@H]1CC[C@H]2[C@@H]3[C@H](OCCCN)C[C@@H]4C[C@H](OCCCN)CC[C@]4(C)[C@H]3C[C@H](OCCCN)[C@]12C [Compound 112]

>  <targetUnderTest>
Candida albicans ATCC 90028

>  <uom>
µg/mL

>  <MBC>
45

$$$$
>  <compound>
C[C@H](CCCN(C)Cc1ccccc1)[C@H]1CC[C@H]2[C@@H]3[C@H](OCCCN)C[C@@H]4C[C@H](OCCCN)CC[C@]4(C)[C@H]3C[C@H](OCCCN)[C@]12C [Compound 2]

>  <targetUnderTest>
Candida albicans ATCC 90028

>  <uom>
µg/mL

>  <MBC>
42

$$$$
>  <compound>
C[C@]12CC[C@@H](OCCCN)C[C@H]1C[C@@H](OCCCN)[C@@H]1[C@@H]2C[C@H](OCCCN)[C@]2(C)[C@@H](O)CC[C@@H]12 [Compound 106]

>  <targetUnderTest>
Candida albicans ATCC 90028

>  <uom>
µg/mL

>  <MBC>
92

$$$$

The compound listed as C[C@H](CCCO)[C@H]1CC[C@H]2[C@@H]3[C@H](OCCCN)C[C@@H]4C[C@H](OCCCN)CC[C@]4(C)[C@H]3C[C@H](OCCCN)[C@]12C [Compound 10] shows MBC equal to 29

According to the records, this compound C[C@H](CCCN(C)Cc1ccccc1)[C@H]1CC[C@H]2[C@@H]3[C@H](OCCCNC(=N)N)C[C@@H]4C[C@H](OCCCNC(=N)N)CC[C@]4(C)[C@H]3C[C@H](OCCCNC(=N)N)[C@]12C [Compound 5] displays MBC of 50

* * *

# maps each entry to its MBC
System: Pseudomonas aeruginosa ATCC 27853
testDescription: MIC and MBC measurement
Type: cell-based
testConditions: ATCC27853, Table 10, Pseudomonas aeruginosa ATCC 27853
Hi! Could you send only the number? It should be in µg/mL, unit omitted.

Some solved entries appear below for comparison.
>  <itemSmiles>
C[C@H](CCCO)[C@H]1CC[C@H]2[C@@H]3[C@H](OCCCN)C[C@@H]4C[C@H](OCCCN)CC[C@]4(C)[C@H]3C[C@H](OCCCN)[C@]12C

>  <uom>
µg/mL

>  <MBC>
36

$$$$
>  <itemSmiles>
CCCOCCC[C@@H](C)[C@H]1CC[C@H]2[C@@H]3[C@H](OCCCN)C[C@@H]4C[C@H](OCCCN)CC[C@]4(C)[C@H]3C[C@H](OCCCN)[C@]12C

>  <uom>
µg/mL

>  <MBC>
6.4

$$$$

GET /value?item= C[C@]12CC[C@@H](OCCCN)C[C@H]1C[C@@H](OCCCN)[C@@H]1[C@@H]2C[C@H](OCCCN)[C@]2(C)[C@@H](O)CC[C@@H]12 &field=MBC returns 97

* * *

List of MIC values.
System: Escherichia coli ATCC 25922
testDescription: MIC and MBC measurement
Assay type: cell-based
testConditions: Escherichia coli, ATCC25922, Table 16 (MIC^b); E. coli (ATTC 25922); read-out: MIC
Return type: number; implicit unit µg/mL.

Field: example entries. Status: answers known.
>  <molecule>
C[C@H](CCC(=O)OCC[N+](C)(C)C)[C@H]1CC[C@H]2[C@@H]3[C@H](OC(=O)CCCN)C[C@@H]4C[C@H](OC(=O)CCCN)CC[C@]4(C)[C@H]3C[C@H](OC(=O)CCCN)[C@]12C [Compound 326]

>  <MIC [µg/mL]>
23

$$$$
>  <molecule>
C[C@H](CCC(=O)OCC[N+](C)(C)C)[C@H]1CC[C@H]2[C@@H]3[C@H](OC(=O)CN)C[C@@H]4C[C@H](OC(=O)CN)CC[C@]4(C)[C@H]3C[C@H](OC(=O)CN)[C@]12C [Compound 324]

>  <MIC [µg/mL]>
60

$$$$
>  <molecule>
CCCCCCCCOC(=O)CC[C@@H](C)[C@H]1CC[C@H]2[C@@H]3[C@H](OC(=O)CN)C[C@@H]4C[C@H](OC(=O)CN)CC[C@]4(C)[C@H]3C[C@H](OC(=O)CN)[C@]12C [Compound 341]

>  <MIC [µg/mL]>
1

$$$$

MIC recorded for this molecule, C[C@H](CCC(=O)OCC[N+](C)(C)C)[C@H]1CC[C@H]2[C@@H]3[C@H](OC(=O)CCN)C[C@@H]4C[C@H](OC(=O)CCN)CC[C@]4(C)[C@H]3C[C@H](OC(=O)CCN)[C@]12C [Compound 325] , is 30

Lab note: CCCCCCCCOC(=O)CC[C@@H](C)[C@H]1CC[C@H]2[C@@H]3[C@H](OC(=O)CCCN)C[C@@H]4C[C@H](OC(=O)CCCN)CC[C@]4(C)[C@H]3C[C@H](OC(=O)CCCN)[C@]12C [Compound 343] gave MIC of 3.5

* * *

Tested on: Escherichia coli ATCC 25922
testDescription: MIC and MBC measurement
Type: cell-based
testConditions: Escherichia coli, ATCC25922, Table 10; Escherichia coli ATCC 25922
Binary label based on MBC with cut-off 7 µg/mL: below gives Criterion met, not below gives Criterion not met.

>  <itemSmiles>
C[C@]12CC[C@@H](OCCCN)C[C@H]1C[C@@H](OCCCN)[C@@H]1[C@@H]2C[C@H](OCCCN)[C@]2(C)[C@@H](O)CC[C@@H]12

>  <targetUnderTest>
Escherichia coli ATCC 25922

>  <classification>
Criterion not met

$$$$
>  <itemSmiles>
C[C@H](CCCN(C)Cc1ccccc1)[C@H]1CC[C@H]2[C@@H]3[C@H](OCCN)C[C@@H]4C[C@H](OCCN)CC[C@]4(C)[C@H]3C[C@H](OCCN)[C@]12C

>  <targetUnderTest>
Escherichia coli ATCC 25922

>  <classification>
Criterion not met

$$$$

Query block: Answer whether the molecule C[C@H](CCCN(C)Cc1ccccc1)[C@H]1CC[C@H]2[C@@H]3[C@H](OCCCNC(=N)N)C[C@@H]4C[C@H](OCCCNC(=N)N)CC[C@]4(C)[C@H]3C[C@H](OCCCNC(=N)N)[C@]12C has MBC strictly less than 7 µg/mL
Result block: Criterion met

Query block: Bench note: check whether C[C@H](CCCO)[C@H]1CC[C@H]2[C@@H]3[C@H](OCCCN)C[C@@H]4C[C@H](OCCCN)CC[C@]4(C)[C@H]3C[C@H](OCCCN)[C@]12C shows MBC below 7 µg/mL
Result block: Criterion not met

Query block: Please indicate whether the reported MBC of CCCOCCC[C@@H](C)[C@H]1CC[C@H]2[C@@H]3[C@H](OCCCN)C[C@@H]4C[C@H](OCCCN)CC[C@]4(C)[C@H]3C[C@H](OCCCN)[C@]12C is strictly below 7 µg/mL.
Result block: Criterion not met
